testedOn: T1, recombinant human ICAM-1 fused to human Fcγ (R&D Systems) (human, UniProt P05362 28-480)
T1 construct: Bought reagent; also called ICAM-1-Fc; human ICAM-1-Fcγ; not shown: human Fcγ
assayName: estimated from flow cytometry MFI of ICAM-1-Fc binding to yeast cells expressing the I domain variant
// NB: equality with 40 µM counts as label 0; only Kd strictly below is label 1

1) F292S LFA-1 I domain (receptor) GNVDLVFLFDGSMSLQPDEFQKILDFMKDVMKKLSNTSYQFAAVQFSTSYKTEFDFSDYVKWKDPDALLKHVKHMLLLTNTFGAINYVATEVFREELGARPDATKVLIIITDGEATDSGNIDAAKDIIRYIIGIGKHFQTKESQETLHKFASKPASEFVKILDTSEKLKDLFTELQKKIYVIEG ... label 1
2) L289G LFA-1 I domain (receptor) GNVDLVFLFDGSMSLQPDEFQKILDFMKDVMKKLSNTSYQFAAVQFSTSYKTEFDFSDYVKWKDPDALLKHVKHMLLLTNTFGAINYVATEVFREELGARPDATKVLIIITDGEATDSGNIDAAKDIIRYIIGIGKHFQTKESQETLHKFASKPASEFVKIGDTFEKLKDLFTELQKKIYVIEG ... label 1
3) L295A LFA-1 I domain (receptor) GNVDLVFLFDGSMSLQPDEFQKILDFMKDVMKKLSNTSYQFAAVQFSTSYKTEFDFSDYVKWKDPDALLKHVKHMLLLTNTFGAINYVATEVFREELGARPDATKVLIIITDGEATDSGNIDAAKDIIRYIIGIGKHFQTKESQETLHKFASKPASEFVKILDTFEKAKDLFTELQKKIYVIEG ... label 1
4) I288N LFA-1 I domain (receptor) GNVDLVFLFDGSMSLQPDEFQKILDFMKDVMKKLSNTSYQFAAVQFSTSYKTEFDFSDYVKWKDPDALLKHVKHMLLLTNTFGAINYVATEVFREELGARPDATKVLIIITDGEATDSGNIDAAKDIIRYIIGIGKHFQTKESQETLHKFASKPASEFVKNLDTFEKLKDLFTELQKKIYVIEG ... label 0
5) I309T LFA-1 I domain (receptor) GNVDLVFLFDGSMSLQPDEFQKILDFMKDVMKKLSNTSYQFAAVQFSTSYKTEFDFSDYVKWKDPDALLKHVKHMLLLTNTFGAINYVATEVFREELGARPDATKVLIIITDGEATDSGNIDAAKDIIRYIIGIGKHFQTKESQETLHKFASKPASEFVKILDTFEKLKDLFTELQKKIYVTEG ... label 0
